Hey, just so you know, these numbers are from the supplement of paper PMC6757056.

B1: library; a variant is named by its letters at N, in order (parent)
chain: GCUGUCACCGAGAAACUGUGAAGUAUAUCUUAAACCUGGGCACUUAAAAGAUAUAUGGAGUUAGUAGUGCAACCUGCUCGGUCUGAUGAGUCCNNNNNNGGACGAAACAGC

# Variants of: B1
# experiment-summary: normalized RNA/DNA level without ligand (relative to sTRSVctl = 100) (log10 (% of sTRSVctl)); HEK293T; ligand: cyclic di-GMP (c-di-GMP-II aptamer); higher = less ribozyme self-cleavage, higher mRNA level
# study-conditions: reporter: mCherry (pCS4076), ligand present: no
quantity-measured: normalized RNA/DNA level without ligand (log10)

{"variant-descriptor": "CGCCAU", "numeric-result": 1.5}
{"variant-descriptor": "GACUUC", "numeric-result": 1.74}
{"variant-descriptor": "CCUGCG", "numeric-result": 1.8}
{"variant-descriptor": "AUGAGG", "numeric-result": 1.55}
{"variant-descriptor": "GAAUAU", "numeric-result": 1.59}
{"variant-descriptor": "CAUUCC", "numeric-result": 1.78}
{"variant-descriptor": "AGUGUG", "numeric-result": 1.57}
{"variant-descriptor": "GGCACU", "numeric-result": 1.73}
{"variant-descriptor": "AAUAGC", "numeric-result": 1.62}
{"variant-descriptor": "GUGACU", "numeric-result": 1.67}
{"variant-descriptor": "AGACUC", "numeric-result": 1.74}
{"variant-descriptor": "ACCGGG", "numeric-result": 1.84}
{"variant-descriptor": "CCACGA", "numeric-result": 1.6}
{"variant-descriptor": "AGAAGU", "numeric-result": 1.57}
{"variant-descriptor": "CACUAC", "numeric-result": 1.64}
{"variant-descriptor": "UUAUAG", "numeric-result": 1.71}
{"variant-descriptor": "CCAUCC", "numeric-result": 1.81}
{"variant-descriptor": "UGGUGU", "numeric-result": 1.6}
{"variant-descriptor": "CGCCGC", "numeric-result": 1.8}
{"variant-descriptor": "AAUGGA", "numeric-result": 1.36}
{"variant-descriptor": "UUAGUG", "numeric-result": 1.62}
{"variant-descriptor": "GGGGAC", "numeric-result": 1.65}
